Task for the reader: assign each of the following compounds its reported ∆λ stokes shifts (λem − λabs).
- test summary: Photophysical properties (UV–Vis absorption and fluorescence spectra)
- Format: physicochemical
- assay conditions: MeOH, 2 µM
Give bare numbers, in nm.

Each compound below has a recorded value; state its ∆λ stokes shifts (λem − λabs).
1. CN(C)c1ccc(/C=C/C(=O)c2cccs2)cc1
2. CN(C)c1ccc(/C=C/C(=O)c2ccc(O)cc2)cc1
3. CN(C)c1ccc(/C=C/C(=O)c2ccc(N(C)C)cc2)cc1
4. CN(C)c1ccc(/C=C/C(=O)c2ccc(N)cc2)cc1
5. Cc1ccc(C(=O)/C=C/c2ccc(N(C)C)cc2)cc1

-- reply
1. 139
2. 132
3. 132
4. 135
5. 130

-- ask Could you tell me which ∆λ stokes shifts (λem − λabs) is on file for COc1ccc(C(=O)/C=C/c2ccc(N(C)C)cc2)cc1 ?
-- reply 132

Hey, just so you know, these numbers are from paper PMC8156934.
